Readings of apparent Kd (screen) for the listed binders
Molecular target: T1, TNFR1 (Homo sapiens, UniProt P19438)
T1 chain: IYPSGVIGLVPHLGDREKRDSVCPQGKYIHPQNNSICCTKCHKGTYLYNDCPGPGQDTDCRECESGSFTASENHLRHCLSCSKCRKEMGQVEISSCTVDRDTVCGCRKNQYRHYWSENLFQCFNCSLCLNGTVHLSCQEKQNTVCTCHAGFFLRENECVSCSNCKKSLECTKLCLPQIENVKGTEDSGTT
Assay: yeast display SC50
All answers are understood in nM, so give the number only.

>  <BINDER>
R65F (designed binder) SMEEEVEKAAKEYEKKKKEAIEKHLEKLKAKDKEAAERFLKELEEAAKEYAKDEAKTMSEEEAKFRAKKYKEKVLLSELSEEEQKEIKEAEEKLVRTILKYVEEAAK

>  <UNITS LABEL>
nM

>  <apparent Kd (screen)>
7.07

$$$$

q: For the binder A10F (designed binder) SMEEEVEKAFKEYEKKKKEAIEKHLEKLKAKDKEAAERFLKELEEAAKEYAKDEAKTMSEEEAKRRAKKYKEKVLLSELSEEEQKEIKEAEEKLVRTILKYVEEAAK , give its measured apparent Kd (screen) value.
a: 10.4
